pKi: −log10 of the molar value.
pKi values for Dihydroorotate dehydrogenase (quinone), mitochondrial (Homo sapiens) compiled from several publications are listed below.
Class T: pKi at least 7. Class F: pKi below 7.

Use the examples below as a reference point.
[
  {
    "Compound": "Cc1c(-c2ccc(-c3ccccc3)cc2)nc2ccc(O)cc2c1C(=O)O",
    "Assigned class": "F"
  },
  {
    "Compound": "C/C(O)=C(\\C#N)C(=O)Nc1ccc(-c2ccccc2Cl)cc1Cl",
    "Assigned class": "T"
  },
  {
    "Compound": "Cc1c(-c2ccc(-c3ccc(F)cc3)cc2)nc2ccc(F)cc2c1C(=O)O",
    "Assigned class": "F"
  },
  {
    "Compound": "COc1ccc(-n2nc(C(=O)NCC3CCCO3)cc2C(=O)Nc2ccc(C(=O)N3CCCC3)cc2)cc1 (centres undefined)",
    "Assigned class": "F"
  }
]

Quick check: does `Cc1c(-c2ccc(-c3ccccc3)cc2)nc2ccc(F)cc2c1O` have pKi greater than or equal to 7?
F

Quick check: does `COc1ccccc1-c1ccc(NC(=O)/C(C#N)=C(/C)O)c(Cl)c1` have pKi greater than or equal to 7?
T

Quick check: does `Cc1c(-c2ccc(-c3ccccc3)cc2)nc2ccc(F)cc2c1C(N)=O` have pKi greater than or equal to 7?
F

Quick check: does `C/C(O)=C(\C#N)C(=O)Nc1ccc(-c2ccccc2Cl)cc1C(F)(F)F` have pKi greater than or equal to 7?
T

Quick check: does `O=C(Nc1ccccc1C(=O)O)c1ccc2cc(Br)ccc2c1` have pKi greater than or equal to 7?
F

Quick check: does `O=C(Nc1ccccc1C(=O)O)c1ccc2ccccc2c1` have pKi greater than or equal to 7?
F

Quick check: does `C/C(O)=C(\C#N)C(=O)Nc1ccc(-c2ccccc2Cl)cc1` have pKi greater than or equal to 7?
T

Quick check: does `Cc1c(-c2ccc(-c3ccccc3)cc2)nc2cc(Cl)ccc2c1C(=O)O` have pKi greater than or equal to 7?
F

Quick check: does `Cc1c(-c2ccc(-c3ccccc3F)cc2)nc2ccncc2c1C(=O)O` have pKi greater than or equal to 7?
F

Quick check: does `CSc1c(-c2ccc(-c3ccccc3)cc2)nc2ccc(F)cc2c1C(=O)O` have pKi greater than or equal to 7?
T

* * *

Ki values for Dihydroorotate dehydrogenase (quinone), mitochondrial (Homo sapiens) compiled from several publications are listed below.
Field format: number, assumed nM, no unit text.

[
  {
    "Smiles structure": "Cc1c(-c2ccc(-c3ccc(O)cc3F)cc2)nc2ccc(F)cc2c1C(=O)O",
    "Unit symbol": "nM",
    "Ki": 11
  },
  {
    "Smiles structure": "O=C(Nc1ccccc1C(=O)O)c1ccc(-c2ccccc2)cc1",
    "Unit symbol": "nM",
    "Ki": 700
  }
]

The compound listed as `CCOc1cccc(-c2ccc(NC(=O)/C(C#N)=C(/C)O)cc2)c1` has a reported Ki of 16
